# measured_target: Smad3 MH1 domain (Homo sapiens, UniProt P84022 1-141)
# Sequence (P84022 1-141): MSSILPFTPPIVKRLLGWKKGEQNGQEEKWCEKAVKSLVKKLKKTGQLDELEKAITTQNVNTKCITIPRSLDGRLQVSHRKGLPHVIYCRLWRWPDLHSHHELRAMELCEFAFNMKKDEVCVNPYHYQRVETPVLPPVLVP
# experimental_protocol: EMSA; text says GC1 oligonucleotide; EMSA: 20 mM Tris pH 7.2, 80 mM NaCl, 2 mM DTT, 7.5 nM Cy5-DNA, 30 min room temperature, gel at 20 C; ITC: Tris pH 7.0, 20 C
# cond: protein: recombinant; tags: N-terminal His-TEV, cleaved; label: 5' Cy5; blunt
pKd: −log10 of the molar value.
measurement_name: pKd

Consider the binder shown here: GC1 core (dsDNA) DNA 1: TTAAGGCCGGGGCCGCGCCGGGAATT DNA 2: AATTCCCGGCGCGGCCCCGGCCTTAA What is its recorded pKd?
~7.00
